System: HEK293 M3R/RGS4, carbachol calcium flux, Fluo4
Procedure Details: RGS4 potentiator concentration-response, SAR follow-up, cell-based, HEK293 M3R/RGS4, calcium flux, SAR compounds (AID 624179)
Quantity Measured: pEC50
The read-out pEC50 is expressed as -log10 of concentration in moles per litre.

Suppose we examine the compound `CCCCn1c(-c2csc(CCC)c2)n[nH]c1=S` ; what pEC50 value has been reported?
5.65

Record request: pEC50 value, item `CCn1cc(CN2CCC(n3nccc3NC(=O)c3ccc(OC)cc3)CC2)cn1`
5.53

Entry COC(=O)C1CCCN(C(=O)c2cc(-c3ccc(C)cc3)nc3ccccc23)C1 (stereo not drawn) : reported pEC50 = ?
5.33

Please report the recorded pEC50 for `CN(Cc1ccc(F)cc1)C(=O)C(c1ccccc1)c1ccccc1` .
5.66

Which pEC50 value is on record for `Cc1ccc(NC(=O)c2cc(-c3cccs3)nc3ccccc23)nc1` ?
5.46

Look at this compound and give its reported pEC50. `Cc1ccc(S(=O)(=O)c2ccc(Oc3cccc(C)c3)cc2)cc1`
5.56

Reported pEC50 for `O=C(CNc1ccccc1)c1ccc([N+](=O)[O-])cc1` : what is it?
5.20

Any idea what its pEC50 is? The compound is `O=C(CNC1CCCCCC1)Nc1ccc(S(=O)(=O)NC2CC2)cc1`
5.23

Field request: pEC50 | item: CCN1CCCC1CNCc1ccccc1OCc1ccc(F)cc1 (stereo not drawn)
5.14

Name the reported pEC50 value associated with the compound `COC(=O)c1cccc(Nc2nc(-c3cccnc3)nc3ccccc23)c1`
5.69

Find the recorded pEC50 belonging to `O=C(Nc1ccccc1N1CCN(C(=O)c2ccccc2)CC1)c1ccc(Cl)o1` and report it.
5.33

For the compound shown here, S=c1[nH]nc(-c2ccc(Cl)cc2)n1CC1CCCO1 (stereo not drawn) , give the reported pEC50.
5.25

State the recorded pEC50 for this entry: `CC(C)Cn1c(-c2ccc(F)cc2)n[nH]c1=S`
5.50
